test: optical density change of DRC41 E. coli – strain DRC41, OD650, 24 h, E. coli filamentation project, primary screen (AID 1093);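 further: MC1000 strain lacking acrAB efflux and sulA so SOS filamentation is blocked; test concentration not given here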; conditions: E. coli DRC41 growth, higher = more signal, called active from +8 up or from −8 down
Calls of active or inactive are those of the source.
// values below are reported z-score

Examples with their reported z-score follow.
INSERT INTO assay_data (compound, measurement_kind, result) VALUES
  ('OCCCC1=CC(C2CC2)N(Cc2cccc(OC(F)(F)F)c2)CC1 (stereo not given)', 'z-score', '-0.454 (inactive)'),
  ('C#CCN1[C@@H](Cc2ccc(O)cc2)C(=O)O[C@H](Cc2ccccc2)[C@@H]1/C=C/C1CC1', 'z-score', '-0.495 (inactive)'),
  ('COc1cc2c(cc1O)C(c1cccs1)N(Cc1cccc(OC(F)(F)F)c1)CC2 (stereo not given)', 'z-score', '-0.878 (inactive)');

According to the records, this compound `C#CCN1[C@H](/C=C/C2CC2)[C@H](Cc2ccccc2)OC(=O)[C@@H]1Cc1ccccc1` displays z-score of -0.714 (inactive)

Reference source: PubChem BioAssay
